// normalized RNA/DNA level without ligand (log10) lookup, one value per entry
B1: library; a variant is named by its letters at N, in order (parent)
chain: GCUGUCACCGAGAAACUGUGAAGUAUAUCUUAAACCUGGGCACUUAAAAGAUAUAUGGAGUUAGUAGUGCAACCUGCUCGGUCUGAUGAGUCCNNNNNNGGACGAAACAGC

# Variants of: B1
# MEASUREMENT NOTES: normalized RNA/DNA level without ligand (relative to sTRSVctl = 100) (log10 (% of sTRSVctl)); HEK293T; ligand: cyclic di-GMP (c-di-GMP-II aptamer); higher = less ribozyme self-cleavage, higher mRNA level
# ASSAY CONDITIONS: reporter: mCherry (pCS4076), ligand present: no
API doc: respond with a numeric literal and nothing else, no unit.

// worked examples, normalized RNA/DNA level without ligand (log10) included
- SEQUENCE VARIANT: "UAAAUG"
  QUANTITATIVE READOUT: 1.62
- SEQUENCE VARIANT: "GAACUG"
  QUANTITATIVE READOUT: 1.66
- SEQUENCE VARIANT: "CCCUGG"
  QUANTITATIVE READOUT: 1.74
- SEQUENCE VARIANT: "GCCUUA"
  QUANTITATIVE READOUT: 1.66
- SEQUENCE VARIANT: "UUUUUU"
  QUANTITATIVE READOUT: 1.77
- SEQUENCE VARIANT: "GAAGUG"
  QUANTITATIVE READOUT: 1.73
- SEQUENCE VARIANT: "ACGAAG"
  QUANTITATIVE READOUT: 1.42
- SEQUENCE VARIANT: "AUGACU"
  QUANTITATIVE READOUT: 1.71

Task: Fill in the blank: the reported normalized RNA/DNA level without ligand (log10) of "GGUACU" is ____.
Result: 1.71

Task: Request: "CGGCUC"
Result: 1.78
